# experimentDescription: NCI Yeast Anticancer Drug Screen. Data for the bub3 strain (AID 167)
# conditionLabel: S. cerevisiae bub3 mutant strain, at 50.0 µM
The panel holds about 79,000 compounds, 15% with a hit somewhere; the sample as a whole holds those more often. Active and inactive are the calls of the source. Cut-off read from the data, not from the text of the source: active = growth inhibition above about 70%; inactive = the rest.
Output constraint: value belongs to t (active), f (inactive)

Check out these entries, answers already filled in.
INPUT: Field: outcome | Entry: O=C(O)c1ccc(N=CC2CO2)cc1 (stereo unspecified)
OUTPUT: f

INPUT: Field: outcome | Entry: `Oc1cccc2ccc(SSc3ccc4cccc(O)c4n3)nc12`
OUTPUT: t

INPUT: Field: outcome | Entry: `COc1ccnc2c1C(=O)c1nc3ccccc3c3ccnc-2c13`
OUTPUT: t

INPUT: Field: outcome | Entry: `Brc1ccc2[nH]c3ccccc3c2c1`
OUTPUT: f

INPUT: Field: outcome | Entry: `CCOc1cc(C(c2ccc(N(C)C)cc2)c2ccc(N(C)C)cc2)ccc1O`
OUTPUT: t

Please find the next compound below.
INPUT: Field: outcome | Entry: `CCOC(=O)C(=Cc1ccc(OC)cc1)C(=O)OCC`
OUTPUT: f

* * *

# experimentDescription: NCI Yeast Anticancer Drug Screen. Data for the mec2-1 strain (AID 157)
# conditionLabel: S. cerevisiae mec2-1 strain, at 50.0 µM, active compounds read high
This is part of a sample that, as a whole, favours compounds with a hit. Of some 79,000 tested, about 15% had one in any assay.
Please use true (1) whenever growth inhibition is not below 40%, and false (0) whenever it is.

Check out these entries, answers already filled in.
INPUT: Quick check, growth inhibition >= 40%? `CC(C)CCN(CCC(C)C)C(=S)Nc1ccccc1`
OUTPUT: true (1)

INPUT: Quick check, growth inhibition >= 40%? `C/C(=N/NC(=S)NCc1ccccc1)c1ncccn1`
OUTPUT: true (1)

INPUT: Quick check, growth inhibition >= 40%? O=C(O)C1C(C(=O)O)C2C(=O)C=CC1N2Cc1ccccc1 (configuration not stated)
OUTPUT: true (1)

INPUT: Quick check, growth inhibition >= 40%? `O=c1c2cc(Br)ccc2ncn1COCc1ccccc1`
OUTPUT: false (0)

INPUT: Quick check, growth inhibition >= 40%? `Cc1c(Cl)ccc(O)c1[N+](=O)[O-]`
OUTPUT: true (1)

INPUT: Quick check, growth inhibition >= 40%? `CCOc1ccc(N=Nc2ccccc2)cc1`
OUTPUT: false (0)

INPUT: Quick check, growth inhibition >= 40%? `CS(=O)(=O)Nc1ccc(Nc2c3ccccc3nc3ccccc23)cc1`
OUTPUT: false (0)

INPUT: Quick check, growth inhibition >= 40%? C/C=C/C/S(=N\S(=O)(=O)c1ccc(C)cc1)c1ccccc1 (configuration not stated)
OUTPUT: true (1)

---
INPUT: Quick check, growth inhibition >= 40%? `Cc1cc(NCCCCCCNc2cc(C)nc3cc(N(C)C)ccc23)c2ccc(N(C)C)cc2n1`
OUTPUT: true (1)

INPUT: Quick check, growth inhibition >= 40%? `CC(C)c1ccc(O)c(O)c(=O)c1`
OUTPUT: true (1)

INPUT: Quick check, growth inhibition >= 40%? Clc1ccc(C2NC(c3ccccc3)c3c(ccc4ccccc34)O2)cc1 (configuration not stated)
OUTPUT: true (1)

INPUT: Quick check, growth inhibition >= 40%? `O=C(CCCCCCCCCCc1ccccc1)c1ccc(Cl)cc1`
OUTPUT: true (1)
